Source: paper PMC5970965

test: human liver microsomal metabolic stability; type: in vitro ADME; settings: both, human liver microsomes
readoutName: half-life (min)
Report only the number, with the unit min understood.

QUERY: Looking for the measured half-life of `Cc1ccc(S(=O)(=O)N2CCC(C(=O)Nc3ccc4cc(C(=O)O)ccc4c3)CC2)c(C)c1` , can you help?
RESULT: 186

---

Hi there, I'd appreciate the recorded microsomal CLint for every entry that follows.
test: human liver microsomal metabolic stability; format: in vitro ADME; settings: both, human liver microsomes

QUERY: Looking for the measured microsomal CLint of Cc1ccc(S(=O)(=O)N2CCC(C(=O)Nc3ccc4cc(C(=O)O)ccc4c3)CC2)c(C)c1 [Compound 3] , can you help?
RESULT: 7.5 µL/min/mg

QUERY: Can you handle [2H]c1c([2H])c(S(=O)(=O)N2CCC(C(=O)Nc3ccc4cc(C(=O)O)ccc4c3)CC2)c(C([2H])([2H])[2H])c([2H])c1C([2H])([2H])[2H] [Compound 3i] next?
RESULT: < 5.8 µL/min/mg

---

Molecular target: fatty acid amide hydrolase (FAAH) (Homo sapiens, UniProt O00519)
Sequence (O00519 1-579): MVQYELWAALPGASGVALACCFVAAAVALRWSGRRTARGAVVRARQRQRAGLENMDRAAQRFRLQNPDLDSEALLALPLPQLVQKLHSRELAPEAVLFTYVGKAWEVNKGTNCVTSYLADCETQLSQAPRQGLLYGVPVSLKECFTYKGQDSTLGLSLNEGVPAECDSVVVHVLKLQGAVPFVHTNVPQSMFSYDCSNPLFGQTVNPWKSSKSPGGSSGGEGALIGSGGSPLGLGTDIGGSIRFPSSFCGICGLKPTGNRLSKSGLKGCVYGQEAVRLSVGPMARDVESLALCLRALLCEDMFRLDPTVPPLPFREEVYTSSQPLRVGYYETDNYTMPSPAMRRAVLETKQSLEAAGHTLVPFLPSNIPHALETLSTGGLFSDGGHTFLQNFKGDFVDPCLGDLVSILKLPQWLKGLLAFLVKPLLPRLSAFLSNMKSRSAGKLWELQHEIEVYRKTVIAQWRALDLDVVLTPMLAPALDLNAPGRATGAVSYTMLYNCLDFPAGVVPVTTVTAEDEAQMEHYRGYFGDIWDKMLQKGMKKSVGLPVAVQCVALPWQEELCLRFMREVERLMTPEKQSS
Hi there, I'd appreciate the recorded IC50 for every entry that follows.

QUERY: Looking for the measured IC50 of `[2H]c1c([2H])c(S(=O)(=O)N2CCC(C(=O)Nc3ccc4cc(C(=O)O)ccc4c3)CC2)c(C([2H])([2H])[2H])c([2H])c1C([2H])([2H])[2H]` , can you help?
RESULT: 8.8 µM

QUERY: Can you handle `Cc1ccc(S(=O)(=O)N2CCC(C(=O)Nc3ccc4cc(C(=O)O)ccc4c3)CC2)c(C)c1` next?
RESULT: 23 µM

---

Molecular target: UniProtKB P80299
Sequence (P80299 1-554): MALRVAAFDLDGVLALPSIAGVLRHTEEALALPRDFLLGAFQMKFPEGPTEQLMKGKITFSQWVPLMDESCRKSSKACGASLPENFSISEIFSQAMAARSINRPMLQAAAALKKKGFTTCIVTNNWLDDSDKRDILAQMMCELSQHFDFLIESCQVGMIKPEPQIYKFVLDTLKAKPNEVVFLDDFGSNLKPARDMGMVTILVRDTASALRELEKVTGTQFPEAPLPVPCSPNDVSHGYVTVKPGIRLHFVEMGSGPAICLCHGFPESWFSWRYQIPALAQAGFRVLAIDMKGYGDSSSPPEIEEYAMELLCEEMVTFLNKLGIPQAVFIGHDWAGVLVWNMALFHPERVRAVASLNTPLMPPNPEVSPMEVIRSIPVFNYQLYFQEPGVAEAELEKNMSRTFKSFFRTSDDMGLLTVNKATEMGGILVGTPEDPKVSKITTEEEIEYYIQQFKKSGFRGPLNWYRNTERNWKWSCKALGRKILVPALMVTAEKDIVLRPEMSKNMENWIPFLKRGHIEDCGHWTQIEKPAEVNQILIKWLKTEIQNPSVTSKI
readoutName: IC50 (nM)
Report only the number, with the unit nM understood.

QUERY: Looking for the measured IC50 of `Cc1ccc(S(=O)(=O)N2CCC(C(=O)Nc3ccc4cc(C(=O)O)ccc4c3)CC2)c(C)c1` , can you help?
RESULT: 141

---

Hi there, I'd appreciate the recorded pIC50 for every entry that follows.
Target chain: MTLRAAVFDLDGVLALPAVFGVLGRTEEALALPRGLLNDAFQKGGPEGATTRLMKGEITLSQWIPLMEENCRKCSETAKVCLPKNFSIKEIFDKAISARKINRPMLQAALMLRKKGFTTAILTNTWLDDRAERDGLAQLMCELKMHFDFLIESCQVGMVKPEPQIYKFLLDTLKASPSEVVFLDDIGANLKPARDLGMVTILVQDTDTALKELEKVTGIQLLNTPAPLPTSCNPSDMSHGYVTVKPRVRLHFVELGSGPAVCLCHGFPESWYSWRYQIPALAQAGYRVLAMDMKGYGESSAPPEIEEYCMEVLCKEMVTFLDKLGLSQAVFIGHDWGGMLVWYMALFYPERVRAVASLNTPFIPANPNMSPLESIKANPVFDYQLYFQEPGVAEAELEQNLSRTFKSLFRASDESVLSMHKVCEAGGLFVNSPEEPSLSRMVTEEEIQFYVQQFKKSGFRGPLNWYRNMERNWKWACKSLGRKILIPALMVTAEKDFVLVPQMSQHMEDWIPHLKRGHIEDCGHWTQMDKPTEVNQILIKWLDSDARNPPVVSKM
API: returns pIC50 as number; meaning -log10 of concentration in mol/L.

QUERY: Looking for the measured pIC50 of `Cc1ccc(S(=O)(=O)N2CCC(C(=O)Nc3ccc4cc(C(=O)O)ccc4c3)CC2)c(C)c1` , can you help?
RESULT: 7.07

QUERY: Can you handle `[2H]c1c([2H])c(S(=O)(=O)N2CCC(C(=O)Nc3ccc4cc(C(=O)O)ccc4c3)CC2)c(C([2H])([2H])[2H])c([2H])c1C([2H])([2H])[2H]` next?
RESULT: 6.97
